- system: L858R/T790M/C797S triple mutant EGFR (Homo sapiens, UniProt P00533, C797S/L858R/T790M)
- Construct: purchased Signalchem
- Sequence (P00533 25-1210 T790M/C797S/L858R): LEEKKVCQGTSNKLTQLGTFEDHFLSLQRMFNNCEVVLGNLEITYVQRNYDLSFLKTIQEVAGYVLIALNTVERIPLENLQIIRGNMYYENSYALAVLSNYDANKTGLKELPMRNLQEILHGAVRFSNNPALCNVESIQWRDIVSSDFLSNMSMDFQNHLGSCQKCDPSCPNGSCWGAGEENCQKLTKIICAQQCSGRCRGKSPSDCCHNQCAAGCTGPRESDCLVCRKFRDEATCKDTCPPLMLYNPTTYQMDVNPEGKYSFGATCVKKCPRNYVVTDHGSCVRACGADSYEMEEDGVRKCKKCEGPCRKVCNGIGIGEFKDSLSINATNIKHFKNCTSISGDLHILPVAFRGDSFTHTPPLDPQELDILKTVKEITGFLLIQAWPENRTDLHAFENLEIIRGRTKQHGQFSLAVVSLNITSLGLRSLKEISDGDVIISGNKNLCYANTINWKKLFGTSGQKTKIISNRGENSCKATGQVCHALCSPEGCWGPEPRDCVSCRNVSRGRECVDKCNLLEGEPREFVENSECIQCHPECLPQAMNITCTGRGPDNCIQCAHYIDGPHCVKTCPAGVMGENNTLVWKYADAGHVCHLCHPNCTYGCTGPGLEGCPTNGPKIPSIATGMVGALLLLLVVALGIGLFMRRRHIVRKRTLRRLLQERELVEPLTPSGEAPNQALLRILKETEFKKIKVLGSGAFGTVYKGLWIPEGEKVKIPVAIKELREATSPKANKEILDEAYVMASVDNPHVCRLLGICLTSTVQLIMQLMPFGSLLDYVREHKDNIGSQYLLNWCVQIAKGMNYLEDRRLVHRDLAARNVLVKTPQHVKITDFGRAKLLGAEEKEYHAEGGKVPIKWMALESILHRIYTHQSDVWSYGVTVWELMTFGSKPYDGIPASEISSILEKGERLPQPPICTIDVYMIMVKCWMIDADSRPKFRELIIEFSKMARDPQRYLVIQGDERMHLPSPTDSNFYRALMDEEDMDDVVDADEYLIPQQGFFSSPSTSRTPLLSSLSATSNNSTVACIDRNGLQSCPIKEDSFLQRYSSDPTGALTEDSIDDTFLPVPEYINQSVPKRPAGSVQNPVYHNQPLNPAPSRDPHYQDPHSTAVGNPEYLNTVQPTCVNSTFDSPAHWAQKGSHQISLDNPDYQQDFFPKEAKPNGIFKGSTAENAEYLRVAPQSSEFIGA
- assay.details: Enzymology experiment in vitro (HTRF/FRET kinase activity), L858R/T790M/C797S triple mutant EGFR
- Format: biochemical
- reported.conditions: HTRF KinEASE-TK, read-out: EGFR (L858R/T790M/C797S) IC50
Consider the cut-off 0.2 nM. If the recorded IC50 is strictly smaller, the label is Y; if not, the label is N.

// below: answered molecules
1. COc1cc(N2CCC(C)(OC)CC2)c(-c2cnn(C)c2)cc1Nc1ncc(Cl)c(Nc2ccc3nccnc3c2P(C)(C)=O)n1 [compound 239] :: N
2. CCc1cnc(Nc2cc(-c3cnn(C)c3)c(N3CCOCC3)cc2OC)nc1Nc1ccc2nccnc2c1P(C)(C)=O [Compound 31] :: N
3. COc1cc(N2CCC3(CN(C)CCO3)C2)c(-c2cnn(C)c2)cc1Nc1ncc(Br)c(Nc2ccc3nccnc3c2P(C)(C)=O)n1 (stereo not drawn) [compound 146] :: N
4. COc1cc(N2CCC3(CC2)COC3)c(-c2cnn(C)c2)cc1Nc1ncc(Br)c(Nc2ccc3nccnc3c2P(C)(C)=O)n1 [compound 15] :: Y
5. COc1cc(N2CC(C)OC(C)C2)c(-c2cnn(C)c2)cc1Nc1ncc(Br)c(Nc2ccc3nccnc3c2P(C)(C)=O)n1 (racemic) [compound 135] :: N

Here is another molecule to look at.
Inquiry: Strictly below 0.2 nM: is that where IC50 of COc1cc(N2CCC3(CC2)CN(C)CCN3C)c(-c2cnn(C)c2)cc1Nc1ncc(Br)c(Nc2ccc3nccnc3c2P(C)(C)=O)n1 [compound 194] sits?
Reply text: Y

----------
# IC50 listing for each entry below
- system: L858R/T790M/C797S triple mutant EGFR (Homo sapiens, UniProt P00533, C797S/L858R/T790M)
- Construct: purchased Signalchem
- assay.details: Enzymology experiment in vitro (HTRF/FRET kinase activity), L858R/T790M/C797S triple mutant EGFR
- Assay type: biochemical
- reported.conditions: HTRF KinEASE-TK, read-out: EGFR (L858R/T790M/C797S) IC50
The response must be a number in nM with no trailing unit.

Completed entries (count: 2):
1) COc1cc(N2CCC(N3CCOCC3)CC2)c(-c2cnn(C)c2)cc1Nc1ncc(Br)c(Nc2ccc3nccnc3c2P(C)(C)=O)n1 [compound 129] :: 0.27
2) COc1cc(N2CCC3CCN(CC4CC4)C3C2)c(-c2cnn(C)c2)cc1Nc1ncc(Br)c(Nc2ccc3nccnc3c2P(C)(C)=O)n1 (single isomer, unassigned) [234a] :: 0.32

Inquiry: Which IC50 is reported for this compound? COc1cc(N2CCOCC2)c(-c2cnn(C)c2)cc1Nc1ncc(Br)c(Nc2ccc3c(c2P(C)(C)=O)CC3)n1
Reply text: 0.11

----------
- system: wild-type EGFR (Homo sapiens)
- Construct: purchased Signalchem
- Sequence (P00533 25-1210): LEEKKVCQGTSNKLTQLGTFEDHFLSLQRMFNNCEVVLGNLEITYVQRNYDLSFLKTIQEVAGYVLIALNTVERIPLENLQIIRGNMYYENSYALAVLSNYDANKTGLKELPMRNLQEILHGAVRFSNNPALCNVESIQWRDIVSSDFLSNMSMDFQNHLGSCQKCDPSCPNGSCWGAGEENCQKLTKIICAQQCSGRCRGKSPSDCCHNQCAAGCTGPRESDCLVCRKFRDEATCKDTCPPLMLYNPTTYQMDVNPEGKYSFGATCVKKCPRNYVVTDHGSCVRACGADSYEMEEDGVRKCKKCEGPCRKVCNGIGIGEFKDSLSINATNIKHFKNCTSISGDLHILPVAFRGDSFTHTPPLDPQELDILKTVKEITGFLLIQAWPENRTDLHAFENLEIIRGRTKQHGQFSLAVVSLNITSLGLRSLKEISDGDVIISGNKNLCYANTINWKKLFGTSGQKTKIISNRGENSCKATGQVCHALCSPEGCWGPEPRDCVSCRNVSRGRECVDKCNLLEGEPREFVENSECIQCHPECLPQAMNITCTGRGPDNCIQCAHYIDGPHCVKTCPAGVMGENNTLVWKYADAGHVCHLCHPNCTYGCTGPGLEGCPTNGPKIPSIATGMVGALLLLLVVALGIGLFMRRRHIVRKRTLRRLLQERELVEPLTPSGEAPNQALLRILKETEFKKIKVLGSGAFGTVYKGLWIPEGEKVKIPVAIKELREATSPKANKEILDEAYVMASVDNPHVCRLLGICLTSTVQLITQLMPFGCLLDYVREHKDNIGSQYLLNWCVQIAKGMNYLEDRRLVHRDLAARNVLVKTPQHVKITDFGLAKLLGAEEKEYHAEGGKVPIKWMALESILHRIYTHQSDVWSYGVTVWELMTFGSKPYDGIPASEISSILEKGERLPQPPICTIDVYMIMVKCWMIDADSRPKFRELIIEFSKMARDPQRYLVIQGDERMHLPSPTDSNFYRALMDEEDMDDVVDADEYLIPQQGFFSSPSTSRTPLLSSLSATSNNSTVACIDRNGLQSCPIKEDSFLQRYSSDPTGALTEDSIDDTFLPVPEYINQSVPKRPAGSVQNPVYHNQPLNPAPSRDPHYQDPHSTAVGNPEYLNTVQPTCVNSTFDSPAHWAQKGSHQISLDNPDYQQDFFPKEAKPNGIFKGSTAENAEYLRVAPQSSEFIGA
- assay.details: Enzymology experiment in vitro (HTRF/FRET kinase activity), wild-type EGFR
- Format: biochemical
- reported.conditions: HTRF KinEASE-TK, read-out: EGFR (WT) IC50
property.name: pIC50
By convention, pIC50 is the negative base-10 log of a molar concentration.

Below are worked cases with known answers.
1. CN1CCC2(CC1)CCN(c1nc(OCC(F)(F)F)c(Nc3ncc(Br)c(Nc4ccc5nccnc5c4P(C)(C)=O)n3)cc1-c1cnn(C)c1)CC2 :: 8.46
2. COc1cc(N2CCOCC2)c(-c2cn[nH]c2)cc1Nc1ncc(C)c(Nc2ccc3nccnc3c2P(C)(C)=O)n1 :: 8.99
3. COc1cc(N2CC[C@H](OC)[C@H](F)C2)c(-c2cnn(C)c2)cc1Nc1ncc(Br)c(Nc2ccc3nccnc3c2P(C)(C)=O)n1 :: 8.24
4. COc1cc(N2CCN3CCC[C@@H]3C2)c(-c2cnn(C)c2)cc1Nc1ncc(Br)c(Nc2ccc3nccnc3c2P(C)(C)=O)n1 :: 8.49
5. Cc1nc(N2CCOCC2)c(-c2cnn(C)c2)cc1Nc1ncc(Br)c(Nc2ccc3nccnc3c2P(C)(C)=O)n1 :: 7.75
6. COc1cc(N2CCC(N3CC(C)N(C)C(C)C3)CC2)c(-c2cnn(C)c2)cc1Nc1ncc(Br)c(Nc2ccc3nccnc3c2P(C)(C)=O)n1 (stereo not shown) :: 9.21
7. COc1cc(N2CCN3CCCCC3C2)c(-c2cnn(C)c2)cc1Nc1ncc(Br)c(Nc2ccc3nccnc3c2P(C)(C)=O)n1 (stereo not shown) :: 8.59
8. COc1cc(N2CCC(N3CC(F)C3)CC2)c(-c2cnn(C)c2)cc1Nc1ncc(Br)c(Nc2ccc3nccnc3c2P(C)(C)=O)n1 :: 8.81

Inquiry: What does the data say about its pIC50? Entry: COc1cc(N2CC(C)OC(C)C2)c(-c2cnn(C)c2)cc1Nc1ncc(Br)c(Nc2cc3c(cc2P(C)(C)=O)CC3)n1 (racemic) [compound 137]
Reply text: 6.77

Inquiry: Quick one: pIC50 of COc1cc(N2CC3CN(CCF)CC3C2)c(-c2cnn(C)c2)cc1Nc1ncc(Br)c(Nc2ccc3nccnc3c2P(C)(C)=O)n1 (stereo not shown) ?
Reply text: 8.24

Inquiry: Would you mind telling me what pIC50 value was observed for COc1cc(N2CCOC(COC(C)C)C2)c(-c2cnn(C)c2)cc1Nc1ncc(Br)c(Nc2ccc3nccnc3c2P(C)(C)=O)n1 (stereo not shown) ?
Reply text: 8.07

Inquiry: // pIC50 lookup, key: Cn1cc(-c2cc(Nc3ncc(Br)c(Nc4ccc5nccnc5c4P(C)(C)=O)n3)c3c(c2)OCO3)cn1
Reply text: 7.74

Inquiry: If you can, please state the reported pIC50 value of COc1cc(N2CCC(N3CCO[C@H](C)C3)CC2)c(-c2cnn(C)c2)cc1Nc1ncc(Br)c(Nc2ccc3nccnc3c2P(C)(C)=O)n1 .
Reply text: 8.72
